Species: Rattus norvegicus
Assay: DrugMatrix - Regimen: Daily Repeat
Assay type: toxicity, organism-based, Sprague-Dawley
Set-up: regimen Daily Repeat, gender Male, age 6-8 weeks
Conditions: in vivo, po, 0 mg/kg, 72 h, tissue Plasma, route oral GAVAGE, dose level Control, time 3 day, vehicle 100 % WATER
Quick rule for you: CHOLESTEROL at 70 mg/dL or higher means t, lower means f.

The examples below pair each entry with its known result.
Nc1c2c(nc3ccccc13)CCCC2 : f
C=CCC1(C(C)CCC)C(=O)NC(=O)NC1=O (centres undefined) : t
COc1cc2nc(N3CCN(C(=O)C4COc5ccccc5O4)CC3)nc(N)c2cc1OC (centres undefined) : f
N[C@@H](Cc1ccc(O)c(O)c1)C(=O)O : f
Cc1onc(-c2ccccc2Cl)c1C(=O)N[C@@H]1C(=O)N2[C@@H]1SC(C)(C)[C@@H]2C(=O)O : t
c1ccc([C@H]2CN3CCSC3=N2)cc1 : t

Now let's try a different one.
Enquiry: In plain terms: is recorded CHOLESTEROL at least 70 mg/dL for C[C@H]1c2cccc(O)c2C(=O)C2=C(O)[C@]3(O)C(=O)C(C(N)=O)=C(O)[C@@H](N(C)C)[C@@H]3[C@@H](O)[C@@H]21.O ?
Return: f

----------
Field: LACTATE DEHYDROGENASE. Provide a value for each of the compounds that follow.
Organism: Rattus norvegicus
Assay: DrugMatrix - Regimen: Daily Repeat
Type: toxicity, organism-based, Sprague-Dawley
Set-up: regimen Daily Repeat, gender Male, age 6-8 weeks
Settings: in vivo, po, 0 mg/kg, 120 h, tissue Plasma, route oral GAVAGE, dose level Control, time 5 day, vehicle 100 % WATER
Answers are plain numbers, in u/L.

C[C@H](CS)C(=O)N1CCC[C@H]1C(=O)O : 544.33
N[C@@H](Cc1ccc(O)c(O)c1)C(=O)O : 95
Cc1onc(-c2ccccc2Cl)c1C(=O)N[C@@H]1C(=O)N2[C@@H]1SC(C)(C)[C@@H]2C(=O)O : 189.33
NCCCCCC(=O)O : 189.33
C[C@](N)(Cc1ccc(O)c(O)c1)C(=O)O : 191.17

Dear reader, for each entry below, please note its LACTATE DEHYDROGENASE.
1. C=CCC1(C(C)CCC)C(=O)NC(=O)NC1=O (centres undefined)
2. CN(C)CCCN1c2ccccc2Sc2ccc(Cl)cc21
3. COc1cc2nc(N3CCN(C(=O)C4COc5ccccc5O4)CC3)nc(N)c2cc1OC (centres undefined)

Return:
146.17
58
95

Dear reader, for each entry below, please note its LACTATE DEHYDROGENASE.
1. Cn1cc[nH]c1=S
2. Clc1cccc(Cl)c1N=C1NCCN1
3. CC(O)CO (centres undefined)
4. C[C@H]1c2cccc(O)c2C(=O)C2=C(O)[C@]3(O)C(=O)C(C(N)=O)=C(O)[C@@H](N(C)C)[C@@H]3[C@@H](O)[C@@H]21.O
5. CNNCc1ccc(C(=O)NC(C)C)cc1
6. c1ccc([C@H]2CN3CCSC3=N2)cc1

Return:
1: 141.33; 2: 238.83; 3: 189.33; 4: 95; 5: 157; 6: 220.33

----------
Species on record: Rattus norvegicus
Test: DrugMatrix - Regimen: Daily Repeat
Type: toxicity, organism-based, Sprague-Dawley
Parameters: regimen Daily Repeat, gender Male, age 6-8 weeks
Details: in vivo, po, 0 mg/kg, 72 h, tissue Plasma, route oral GAVAGE, dose level Control, time 3 day, vehicle .5 % CMC
Field: CHLORIDE. Provide a value for each of the compounds that follow.
One number for each entry, in MEQ/L.

ClC(Br)Br : 100.17
C1CCC(C(CC2CCCCN2)C2CCCCC2)CC1 (stereo not given) : 104.5
Nc1ccn([C@H]2CC[C@@H](CO)O2)c(=O)n1 : 102.83
NC1=NC(=O)C(c2ccccc2)O1 (stereo not given) : 104.33
O=C(CCCN1CC=C(n2c(=O)[nH]c3ccccc32)CC1)c1ccc(F)cc1 : 104.33
CCCN1C[C@H](CSC)C[C@@H]2c3cccc4[nH]cc(c34)C[C@H]21 [PERGOLIDE] : 101.8
CCOP(=S)(OCC)Oc1nc(Cl)c(Cl)cc1Cl : 103.5
ClC(Cl)Br : 100.17

Dear reader, for each entry below, please note its CHLORIDE.
1. CN1CCN(CCCN2c3ccccc3Sc3ccc(Cl)cc32)CC1
2. CCCCc1oc2ccccc2c1C(=O)c1cc(I)c(OCCN(CC)CC)c(I)c1
3. OCCN(CCO)c1nc(N2CCCCC2)c2nc(N(CCO)CCO)nc(N3CCCCC3)c2n1
4. Cc1ccc2cc3c(ccc4ccccc43)c3c2c1CC3
5. CCn1cc(C(=O)O)c(=O)c2cc(F)c(N3CCNCC3)cc21
6. N=C(N)NCCN1CCCCCCC1
7. COc1nc(C)nc(Cl)c1N=C1NCCN1

Return:
97.67
104.17
99.33
103
99.17
99.33
98.17

----------
Species on record: Rattus norvegicus
Assay: DrugMatrix - Regimen: Daily Repeat
Format: toxicity, organism-based, Sprague-Dawley
Set-up: regimen Daily Repeat, gender Male, age 6-8 weeks
Settings: in vivo, po, 0 mg/kg, 120 h, tissue Blood, route oral GAVAGE, dose level Control, time 5 day, vehicle .5 % CMC
Experimental Readout: PLATELET COUNT (x10E3/uL)
Give bare numbers, in x10E3/uL.

Cc1ccc(/N=C/N(C)/C=N/c2ccc(C)cc2C)c(C)c1 : 1274
CCn1cc(C(=O)O)c(=O)c2cc(F)c(N3CCNCC3)cc21 : 1274
CCOP(=S)(OCC)Oc1nc(Cl)c(Cl)cc1Cl : 1182.33

Dear reader, for each entry below, please note its PLATELET COUNT.
1. CC1CC(OC(=O)C(O)c2ccccc2)CC(C)(C)C1 (stereo not drawn) [CYCLANDELATE]
2. CCCN1C[C@H](CSC)C[C@@H]2c3cccc4[nH]cc(c34)C[C@H]21 [PERGOLIDE]

Return:
1. 1042.83
2. 1251.67

Dear reader, for each entry below, please note its PLATELET COUNT.
1. OCCN(CCO)c1nc(N2CCCCC2)c2nc(N(CCO)CCO)nc(N3CCCCC3)c2n1
2. Cc1nc2n(c(=O)c1CCN1CCC(c3noc4cc(F)ccc34)CC1)CCCC2
3. CC(C)(C)NC(=O)[C@@H]1C[C@@H]2CCCC[C@@H]2CN1C[C@@H](O)[C@H](Cc1ccccc1)NC(=O)[C@H](CC(N)=O)NC(=O)c1ccc2ccccc2n1
4. NC1=NC(=O)C(c2ccccc2)O1 (stereo not drawn)

Return:
1: 1042.83; 2: 1053.67; 3: 1255.5; 4: 1182.33

----------
Field: ALKALINE PHOSPHATASE. Provide a value for each of the molecules that follow.
Species on record: Rattus norvegicus
Experiment: DrugMatrix - Regimen: Daily Repeat
Type: toxicity, organism-based, Sprague-Dawley
Set-up: regimen Daily Repeat, gender Male, age 6-8 weeks
Details: in vivo, po, 0 mg/kg, […], tissue Plasma, route oral GAVAGE, dose level Control, time 14 day, vehicle .5 % CMC
Numbers only, in u/L.

COc1ccc(C(=O)Nc2c(Cl)c[n+]([O-])cc2Cl)c2ccc(C(F)(F)F)nc12 : 328.17

Dear reader, for each entry below, please note its ALKALINE PHOSPHATASE.
1. ClC(Cl)Br
2. CCOP(=S)(OCC)Oc1nc(Cl)c(Cl)cc1Cl
3. ClC(Br)Br

Return:
346.17
409.67
346.17

----------
Species on record: Rattus norvegicus
Assay: DrugMatrix - Regimen: Daily Repeat
Type: toxicity, organism-based, Sprague-Dawley
Set-up: regimen Daily Repeat, gender Male, age 6-8 weeks
Details: in vivo, po, 0 mg/kg, 72 h, tissue Blood, route oral GAVAGE, dose level Control, time 3 day, […]
Field: NEUTROPHIL. Provide a value for each of the compounds that follow.
Answers are plain numbers, in %.

Record excerpt, results attached:
CN(C)c1nc(N(C)C)nc(N(C)C)n1 : 7
C[C@@H]1CN(c2c(F)c(N)c3c(=O)c(C(=O)O)cn(C4CC4)c3c2F)C[C@H](C)N1 : 7
Cc1noc(NS(=O)(=O)c2ccc(N)cc2)c1C : 9.83
CC(C)C(=O)Nc1ccc([N+](=O)[O-])c(C(F)(F)F)c1 [FLUTAMIDE] : 4.5
OC(Cn1cncn1)(Cn1cncn1)c1ccc(F)cc1F : 10

Dear reader, for each entry below, please note its NEUTROPHIL.
1. CCOC(=O)C1=C(COCCN)NC(C)=C(C(=O)OC)C1c1ccccc1Cl (stereo not given)
2. O=NN(CCCl)C(=O)NC1CCCCC1

Return:
[7, 7]

Dear reader, for each entry below, please note its NEUTROPHIL.
1. O=C(O)CCCc1ccc(N(CCCl)CCCl)cc1
2. C[C@H]1O[C@@H](O[C@H]2[C@@H](O)C[C@H](O[C@H]3[C@@H](O)C[C@H](O[C@H]4CC[C@@]5(C)[C@H](CC[C@@H]6[C@@H]5C[C@@H](O)[C@]5(C)[C@@H](C7=CC(=O)OC7)CC[C@]65O)C4)O[C@@H]3C)O[C@@H]2C)C[C@H](O)[C@@H]1O
3. CC(C)(Oc1ccc(Cl)cc1)C(=O)O

Return:
1: 10; 2: 9.5; 3: 10.33

Origin of measurements: ChEMBL document CHEMBL3885881
